// reported Kd for each item listed
# measuredOn: GDP-bound KRAS wild-type protein (Homo sapiens, UniProt P01116)
# Sequence (P01116 whole entry): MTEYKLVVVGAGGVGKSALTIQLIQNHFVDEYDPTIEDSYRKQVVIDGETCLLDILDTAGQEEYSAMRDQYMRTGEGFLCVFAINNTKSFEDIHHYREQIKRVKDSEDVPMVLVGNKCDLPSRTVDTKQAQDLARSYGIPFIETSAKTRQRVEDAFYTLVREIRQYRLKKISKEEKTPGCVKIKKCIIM
# procedureSummary: Binding to KRAS by surface plasmon resonance (SPR), Single Cycle Kinetics
# settings: SPR, Single Cycle Kinetics, GDP-bound KRAS wild-type protein; read-out: KRAS KD
Where a SMILES comes first, the peptide text is derived from it. Bridges are numbered along the chain shown (N, C = ends). [ ]: non-standard residue; d: D form. The star is where a group is joined. hPhe(3-Cl-4-CF3) = N[C@@H](CCc1ccc(C(F)(F)F)c(Cl)c1)C(=O)O; NPrPhe(4-CF3) = CCCN[C@@H](Cc1ccc(C(F)(F)F)cc1)C(=O)O; NMeChg = CN[C@H](C(=O)O)C1CCCCC1; NMeD = CN[C@@H](CC(=O)O)C(=O)O; NMeL = CN[C@@H](CC(C)C)C(=O)O; Morpholide = C1CN(*)CCO1; Ac4c = NC1(C(=O)O)CCC1; Sar = CNCC(=O)O
State the answer as a number, implicitly in nM.

compound | measuredOn | measurementUnit | recordedNumber
CCC[C@H]1C(=O)N[C@@H]([C@@H](C)CC)C(=O)N(C2CC2)CC(=O)N(C)[C@H]2C/C=C\CCN(C2=O)[C@@H](CC2CCC(F)(F)CC2)C(=O)N(C)CC(=O)N[C@@H](CCc2ccc(C(F)(F)F)c(OC)c2)C(=O)N2C[C@H](OCC)C[C@H]2C(=O)N(C)C2(CCC2)C(=O)N(C)[C@@H](C(CC)CC)C(=O)N(C)[C@H](C(=O)N(C)C)CC(=O)N1C [PP2349] | GDP-bound KRAS wild-type protein (Homo sapiens, UniProt P01116) | nM | 3.8

**Query** Assign Kd to the following record: CCCN1C(=O)CN(C)C(=O)CN(C)C(=O)[C@H]([C@@H](C)CC)NC(=O)[C@H](CC(C)C)N(C)C(=O)C[C@@H](C(=O)N2CCOCC2)N(C)C(=O)[C@H](C2CCCCC2)N(C)C(=O)C2(CCC2)NC(=O)[C@@H]2CCCN2C(=O)[C@H](CCc2ccc(C(F)(F)F)c(Cl)c2)NC(=O)CN(C)C(=O)[C@@H]1Cc1ccc(C(F)(F)F)cc1 [PP1928] ([NMeL]I[Sar][Sar][NPrPhe(4-CF3)][Sar][hPhe(3-Cl-4-CF3)]P[Ac4c][NMeChg][NMeD]-Morpholide; lactam N-11)
**Result** 0.25

###

# measuredOn: GDP-bound KRAS wild-type protein (Homo sapiens, UniProt P01116)
# procedureSummary: Binding to KRAS by surface plasmon resonance (SPR), Single Cycle Kinetics
# settings: SPR, Single Cycle Kinetics, GDP-bound KRAS wild-type protein; read-out: KRAS KD
measuredParameter: pKd
Quick note: pKd values are minus log10 of concentrations in mol/L.

Record excerpt, results attached:
compound | measuredOn | pKd
CCOC[C@H]1C(=O)N[C@@H]([C@@H](C)CC)C(=O)N(C)CC(=O)N(C)[C@H]2C/C=C\CCN(C2=O)[C@@H](Cc2ccc(C)cc2)C(=O)N(C)CC(=O)N[C@@H](CCc2cc(F)c(C(F)(F)F)c(F)c2)C(=O)N2C[C@H](OCC)C[C@H]2C(=O)NC2(CC(C)(C)C2)C(=O)N(C)[C@@H](C2CCCC2)C(=O)N(C)[C@H](C(=O)N(C)C)CC(=O)N1C [PP2397] | GDP-bound KRAS wild-type protein (Homo sapiens, UniProt P01116) | 10.29
CCO[C@@H]1C[C@H]2C(=O)NC3(CCC3)C(=O)N(C)[C@@H](C(CC)CC)C(=O)N3CCC[C@@H]3CC(=O)N(C)[C@@H](CC3CC3)C(=O)N[C@@H]([C@@H](C)CC)C(=O)N(C)CC(=O)N(C)[C@H]3C/C=C\CCN(C3=O)[C@@H](Cc3ccc(C(F)(F)F)cc3)C(=O)N(C)CC(=O)N[C@@H](CCc3cc(F)c(C(F)(F)F)c(F)c3)C(=O)N2C1 [PP1612] | GDP-bound KRAS wild-type protein (Homo sapiens, UniProt P01116) | 8.92
CCC[C@H]1C(=O)N[C@@H]([C@@H](C)CC)C(=O)N(C2CC2)CC(=O)N(C)[C@H]2C/C=C\CCN(C2=O)[C@@H](CC2CCCCC2)C(=O)N(C)CC(=O)N[C@@H](CCc2ccc(C(F)(F)F)c(OC)c2)C(=O)N2C[C@@H](C)C[C@H]2C(=O)N(C)C2(CCC2)C(=O)N(C)[C@@H](C2CCCC2)C(=O)N(C)[C@H](C(=O)N(C)C)CC(=O)N1C [PP2372] | GDP-bound KRAS wild-type protein (Homo sapiens, UniProt P01116) | 9.10
CCO[C@@H]1C[C@H]2C(=O)NC3(CCC3)C(=O)N(C)[C@@H](C3CCCC3)C(=O)N(C)[C@H](C(=O)N(C)C)CC(=O)N(C)[C@@H](CC(F)(F)F)C(=O)N[C@@H]([C@@H](C)CC)C(=O)N(C)CC(=O)N(C)[C@H]3C/C=C\CCN(C3=O)[C@@H](Cc3ccc(C(F)(F)F)cc3)C(=O)N(C)CC(=O)N[C@@H](CCc3cc(F)c(C(F)(F)F)c(F)c3)C(=O)N2C1 [PP1124] | GDP-bound KRAS wild-type protein (Homo sapiens, UniProt P01116) | 10.25
CCOC[C@H]1C(=O)N[C@@H]([C@@H](C)CC)C(=O)N2CCC[C@H]2C(=O)N(C)[C@H]2C/C=C\CCN(C2=O)[C@@H](Cc2ccc(C)cc2)C(=O)N(C)CC(=O)N[C@@H](CCc2ccc(C(F)(F)F)c(OC)c2)C(=O)N2C[C@@H](C)C[C@H]2C(=O)NC2(CC(C)(C)C2)C(=O)N(C)[C@@H](C2CCCC2)C(=O)N(C)[C@H](C(=O)N(C)CC)CC(=O)N1C [PP2427] | GDP-bound KRAS wild-type protein (Homo sapiens, UniProt P01116) | 9.15

**Query** Provide one value: measured pKd of CCCOC[C@H]1C(=O)N[C@@H]([C@@H](C)CC)C(=O)N(C)CC(=O)N(C)[C@H]2C/C=C\CCN(C2=O)[C@@H](CC2CCC(F)(F)CC2)C(=O)N(C)CC(=O)N[C@@H](CCc2cc(F)c(C(F)(F)F)c(F)c2)C(=O)N2C[C@H](OCC)C[C@H]2C(=O)NC2(CC(C)(C)C2)C(=O)N(C)[C@@H](C(CC)CC)C(=O)N(C)[C@H](C(=O)N(C)C)CC(=O)N1C [PP2472]
**Result** 9.24

**Query** Please look at this compound and report its pKd: CCO[C@@H]1C[C@H]2C(=O)NC3(CCC3)C(=O)N(C)[C@@H](C(C)(C)C)C(=O)N(C)[C@H](C(=O)N3CCOCC3)CC(=O)N(C)[C@@H](CC(C)C)C(=O)N[C@@H]([C@@H](C)CC)C(=O)N(C)CC(=O)N(C)[C@H]3CCCCN(C3=O)[C@@H](Cc3ccc(C(F)(F)F)cc3)C(=O)N(C)CC(=O)N[C@@H](CCc3cc(F)c(C(F)(F)F)c(F)c3)C(=O)N2C1 [PP0814]
**Result** 10.41

**Query** Report measured pKd; entry is CCCOC[C@H]1C(=O)N[C@@H]([C@@H](C)CC)C(=O)N(C)CC(=O)N(C)[C@H]2C/C=C\CCN(C2=O)[C@@H](Cc2ccc(C)cc2)C(=O)N(C)CC(=O)N[C@@H](CCc2ccc(C(F)(F)F)c(Cl)c2)C(=O)N2C[C@H](C)C[C@H]2C(=O)NC2(CC(C)(C)C2)C(=O)N(C)[C@@H](C2CCCC2)C(=O)N(C)[C@H](C(=O)N(C)C)CC(=O)N1C [PP2234]
**Result** 9.72

**Query** Give the measured pKd for CCO[C@@H]1C[C@H]2C(=O)NC3(CCC3)C(=O)N(C)[C@@H](C3CCCC3)C(=O)N(C)[C@H](C(=O)N3CCOCC3)CC(=O)N(C)[C@@H](Cc3cccc(Cl)c3)C(=O)N[C@@H]([C@@H](C)CC)C(=O)N(C)CC(=O)N(C)[C@H]3CCCCCN(C3=O)[C@@H](Cc3ccc(C(F)(F)F)cc3)C(=O)N(C)CC(=O)N[C@@H](CCc3cc(F)c(C(F)(F)F)c(F)c3)C(=O)N2C1 [PP0857]
**Result** 8.85

**Query** Supply pKd value. Item: CCO[C@@H]1C[C@H]2C(=O)NC3(CCC3)C(=O)N(C)[C@@H](C3CCCC3)C(=O)N(C)[C@H](C(=O)N3CCOCC3)CC(=O)N(C)[C@@H](Cc3ccc(C)cc3)C(=O)N[C@@H]([C@@H](C)CC)C(=O)N(C)CC(=O)N(C)[C@H]3CCCCCN(C3=O)[C@@H](Cc3ccc(C(F)(F)F)cc3)C(=O)N(C)CC(=O)N[C@@H](CCc3cc(F)c(C(F)(F)F)c(F)c3)C(=O)N2C1 [PP0933]
**Result** 8.80

**Query** Provide only the value of recorded pKd for CCO[C@@H]1C[C@H]2C(=O)NC3(CC(F)(F)C3)C(=O)N(C)[C@@H](C3CCCC3)C(=O)N(C)[C@H](C(=O)N(C)C)CC(=O)N(C)[C@@H](CC3CCC3)C(=O)N[C@@H]([C@@H](C)CC)C(=O)N(C)CC(=O)N(C)[C@H]3C/C=C\CCN(C3=O)[C@@H](Cc3ccc(C(F)(F)F)cc3)C(=O)N(C)CC(=O)N[C@@H](CCc3cc(F)c(C(F)(F)F)c(F)c3)C(=O)N2C1 [PP1742]
**Result** 10.29
